The measured values listed here are drawn from patent US10253007B2.

Recorded inhibition at 1 µM for the following molecules
- Tested on: HL60 leukemia
- test.method.notes: MTT assay, proliferation inhibition
- Assay type: cell-based
- measurement.context: Homo sapiens, HL-60, read-out: Proliferation inhibition rate
attribute.measured: inhibition at 1 µM (%)

mol_smiles=COC(=O)O[C@H]1C(=O)[C@]2(C)[C@@H](OC)C[C@H]3OC[C@@]3(OC(C)=O)[C@H]2[C@H](OC(=O)c2ccccc2)[C@]2(O)C[C@H](OC(=O)[C@H](O)[C@@H](NC(=O)c3ccccc3)c3ccccc3)C(C)=C1C2(C)C attribute_measured="inhibition at 1 µM" measured_value=97.4
mol_smiles=COC(=O)O[C@H]1C[C@H]2OC[C@@]2(OC(C)=O)[C@H]2[C@H](OC(=O)c3ccccc3)[C@]3(O)C[C@H](OC(=O)[C@H](O)[C@@H](NC(=O)OC(C)(C)C)c4ccccc4)C(C)=C([C@@H](OC)C(=O)[C@]12C)C3(C)C attribute_measured="inhibition at 1 µM" measured_value=97.8
mol_smiles=CCSC(=O)O[C@H]1C(=O)[C@]2(C)[C@@H](OC)C[C@H]3OC[C@@]3(OC(C)=O)[C@H]2[C@H](OC(=O)c2ccccc2)[C@]2(O)C[C@H](OC(=O)[C@H](O)[C@@H](NC(=O)OC(C)(C)C)c3ccccc3)C(C)=C1C2(C)C attribute_measured="inhibition at 1 µM" measured_value=98.5
mol_smiles=CO[C@H]1C(=O)[C@]2(C)[C@@H](OC(=O)N(C)C)C[C@H]3OC[C@@]3(OC(C)=O)[C@H]2[C@H](OC(=O)c2ccccc2)[C@]2(O)C[C@H](OC(=O)[C@H](O)[C@@H](NC(=O)OC(C)(C)C)c3ccccc3)C(C)=C1C2(C)C attribute_measured="inhibition at 1 µM" measured_value=97.8
mol_smiles=CO[C@H]1C(=O)[C@]2(C)CC[C@H]3OC[C@@]3(OC(C)=O)[C@H]2[C@H](OC(=O)c2ccccc2)[C@]2(O)C[C@H](OC(=O)[C@H](O)[C@H](CC(C)C)NC(=O)OC(C)(C)C)C(C)=C1C2(C)C attribute_measured="inhibition at 1 µM" measured_value=97.6
mol_smiles=CO[C@H]1C[C@H]2OC[C@@]2(OC(C)=O)[C@H]2[C@H](OC(=O)c3ccccc3)[C@]3(O)C[C@H](OC(=O)[C@H](O)[C@H](CC(C)C)NC(=O)OC(C)(C)C)C(C)=C([C@@H](OC(=O)N(C)C)C(=O)[C@]12C)C3(C)C attribute_measured="inhibition at 1 µM" measured_value=97.7
mol_smiles=CO[C@H]1C[C@H]2OC[C@@]2(OC(C)=O)[C@H]2[C@H](OC(=O)c3ccccc3)[C@]3(O)C[C@H](OC(=O)[C@H](O)[C@@H](NC(=O)OC(C)(C)C)c4ccccc4)C(C)=C([C@@H](OC(=O)N(C)C)C(=O)[C@]12C)C3(C)C attribute_measured="inhibition at 1 µM" measured_value=97.5
mol_smiles=CO[C@H]1C(=O)[C@]2(C)C=C[C@@H](O)[C@](CO)(OC(C)=O)[C@H]2[C@H](OC(=O)c2ccccc2)[C@]2(O)C[C@H](OC(=O)[C@H](O)[C@@H](NC(=O)OC(C)(C)C)c3ccccc3)C(C)=C1C2(C)C attribute_measured="inhibition at 1 µM" measured_value=96.3
mol_smiles=CO[C@H]1C(=O)[C@]2(C)[C@@H](OC(=O)N(C)C)C[C@H]3OC[C@@]3(OC(C)=O)[C@H]2[C@H](OC(=O)c2ccccc2)[C@]2(O)C[C@H](OC(=O)[C@H](O)[C@@H](NC(=O)c3ccccc3)c3ccccc3)C(C)=C1C2(C)C attribute_measured="inhibition at 1 µM" measured_value=97.8
